Measured kinact/KI, listed per entry for reference.
- measured-target: rat FAAH (Rattus norvegicus)
- Construct: made in house; host or cells: E. coli
- measurement-description: FAAH assay, rat FAAH enzyme inactivation (kinact/Ki)
- Format: biochemical
- test-parameters: pH 7.4, in vitro, oleamide 50 μM, 30° C., read-out: rFAAH kinact/Ki
Report the figure in M⁻¹ s⁻¹ without appending any unit label.

Example entries and their recorded answers appear below.
compound: O=C(Nc1cccnn1)N1CCC2(CC1)C[C@H](c1cccc(Oc3ccc(C(F)(F)F)cn3)c1)CO2
measured-target: rat FAAH (Rattus norvegicus)
kinact/KI [M⁻¹ s⁻¹]: 2240

compound: Cc1noc(NC(=O)N2CCC3(CC2)CC(c2cccc(OC(F)(F)F)c2)CO3)c1C (racemic) [Example 13]
measured-target: rat FAAH (Rattus norvegicus)
kinact/KI [M⁻¹ s⁻¹]: 3110

Let us examine a further case.
Q. Determine from records and report kinact/KI for Cn1nnnc1NC(=O)N1CCC2(CC1)CC(c1cccc(C(F)(F)F)c1)CO2 (racemic) [Example 92]
A. 3120

----------
// reported kinact/KI per item
- measured-target: rat FAAH (Rattus norvegicus)
- Construct: made in house; host or cells: E. coli
- measurement-description: FAAH assay, rat FAAH enzyme inactivation (kinact/Ki)
- Type: biochemical
- test-parameters: pH 7.4, in vitro, oleamide 50 μM, 30° C., read-out: rFAAH kinact/Ki
# number only, unit M⁻¹ s⁻¹ dropped from output

compound: Cc1noc(NC(=O)N2CCC3(CC2)CC(c2ccc(OCc4ccc(F)c(F)c4)cc2)CO3)c1C (racemic)
test-result: 5800
--
compound: Cc1noc(NC(=O)N2CCC3(CC2)CC(c2cc(F)cc(Cl)c2)CO3)c1C (racemic)
test-result: 3590
--
compound: Cc1noc(NC(=O)N2CCC3(CC2)C[C@H](c2ccc(OCc4cccc(F)c4)cc2)CO3)c1C
test-result: 6260

// moving on: another record for kinact/KI
Q. Give the reported kinact/KI for this compound. Cc1noc(NC(=O)N2CCC3(CC2)C[C@H](c2cccc(-c4ccc(C(F)(F)F)cn4)c2)CO3)c1C
A. 1630

----------
- measured-target: rat FAAH (Rattus norvegicus)
- Construct: made in house; host or cells: E. coli
- Sequence (P97612 1-579): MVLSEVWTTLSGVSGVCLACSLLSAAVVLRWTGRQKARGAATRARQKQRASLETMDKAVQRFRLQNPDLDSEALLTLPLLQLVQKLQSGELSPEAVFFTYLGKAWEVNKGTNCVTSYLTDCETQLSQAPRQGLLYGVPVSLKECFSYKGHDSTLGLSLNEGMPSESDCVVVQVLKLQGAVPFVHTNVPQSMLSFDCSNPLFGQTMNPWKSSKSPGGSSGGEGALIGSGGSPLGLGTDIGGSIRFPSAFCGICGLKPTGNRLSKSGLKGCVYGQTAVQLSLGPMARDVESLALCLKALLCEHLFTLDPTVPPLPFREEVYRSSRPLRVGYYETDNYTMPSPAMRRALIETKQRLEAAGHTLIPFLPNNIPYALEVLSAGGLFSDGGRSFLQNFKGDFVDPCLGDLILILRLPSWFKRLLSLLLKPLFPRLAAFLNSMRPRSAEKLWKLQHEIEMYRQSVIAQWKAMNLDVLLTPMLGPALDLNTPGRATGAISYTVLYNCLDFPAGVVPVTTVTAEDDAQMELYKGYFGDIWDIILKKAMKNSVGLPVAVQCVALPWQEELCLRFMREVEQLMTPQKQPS
- measurement-description: FAAH assay, rat FAAH enzyme inactivation (kinact/Ki)
- Type: biochemical
- test-parameters: pH 7.4, in vitro, oleamide 50 μM, 30° C., read-out: rFAAH kinact/Ki
The following compounds are listed with their measured kinact/KI values.
// unit must come after the numeric part

compound: CCCc1noc(NC(=O)N2CCC3(CC2)CC(c2ccc(Cl)c(Cl)c2)CO3)c1C (single isomer, unassigned) [Example 69]
property-measured: kinact/KI
test-result: 4880 M⁻¹ s⁻¹
//
compound: O=C(Nc1cccnn1)N1CCC2(CC1)C[C@@H](c1cccc(Oc3ccc(C(F)(F)F)cn3)c1)CO2 [Example 2]
property-measured: kinact/KI
test-result: 1130 M⁻¹ s⁻¹
//
compound: Cc1noc(NC(=O)N2CCC3(CC2)CC(c2cccc(-c4ccc(OC(F)(F)F)cc4)c2)CO3)c1C (racemic) [Example 56]
property-measured: kinact/KI
test-result: 1140 M⁻¹ s⁻¹
//
compound: Cc1noc(NC(=O)N2CCC3(CC2)CC(c2ccc(Cl)cc2F)CO3)c1C (racemic) [Example 27]
property-measured: kinact/KI
test-result: 1140 M⁻¹ s⁻¹
//
compound: Cc1noc(NC(=O)N2CCC3(CC2)CC(c2ccc4ccccc4c2)CO3)c1C (racemic) [Example 25]
property-measured: kinact/KI
test-result: 2240 M⁻¹ s⁻¹
//
compound: Cc1noc(NC(=O)N2CCC3(CC2)CC(c2cccc(-c4ccc(Cl)cc4)c2)CO3)c1C (racemic) [Example 55]
property-measured: kinact/KI
test-result: 1160 M⁻¹ s⁻¹

Q. Quote kinact/KI reported for Cn1nnnc1NC(=O)N1CCC2(CC1)C[C@@H](c1ccc(OCc3ccc(F)c(F)c3)cc1)CO2 [Example 89] please.
A. 9640 M⁻¹ s⁻¹

Q. Recall and state the measured kinact/KI for Cc1noc(NC(=O)N2CCC3(CC2)C[C@H](c2cccc(-c4ccc(F)c(F)c4)c2)CO3)c1C [Example 58] .
A. 707 M⁻¹ s⁻¹

Q. Could you please provide reported kinact/KI for Cn1nnnc1NC(=O)N1CCC2(CC1)C[C@H](c1cccc(-c3ccc(F)cc3)c1)CO2 [Example 96] ? Thanks!
A. 2010 M⁻¹ s⁻¹

Q. Quick one: give measured kinact/KI for Cc1noc(NC(=O)N2CCC3(CC2)CC(c2noc(-c4ccc(OC(F)(F)F)cc4)n2)CO3)c1C (racemic) [Example 71]
A. 1020 M⁻¹ s⁻¹
